- TESTED TARGET: ATP-dependent translocase ABCB1 (Homo sapiens)
- Sequence (P08183 whole entry): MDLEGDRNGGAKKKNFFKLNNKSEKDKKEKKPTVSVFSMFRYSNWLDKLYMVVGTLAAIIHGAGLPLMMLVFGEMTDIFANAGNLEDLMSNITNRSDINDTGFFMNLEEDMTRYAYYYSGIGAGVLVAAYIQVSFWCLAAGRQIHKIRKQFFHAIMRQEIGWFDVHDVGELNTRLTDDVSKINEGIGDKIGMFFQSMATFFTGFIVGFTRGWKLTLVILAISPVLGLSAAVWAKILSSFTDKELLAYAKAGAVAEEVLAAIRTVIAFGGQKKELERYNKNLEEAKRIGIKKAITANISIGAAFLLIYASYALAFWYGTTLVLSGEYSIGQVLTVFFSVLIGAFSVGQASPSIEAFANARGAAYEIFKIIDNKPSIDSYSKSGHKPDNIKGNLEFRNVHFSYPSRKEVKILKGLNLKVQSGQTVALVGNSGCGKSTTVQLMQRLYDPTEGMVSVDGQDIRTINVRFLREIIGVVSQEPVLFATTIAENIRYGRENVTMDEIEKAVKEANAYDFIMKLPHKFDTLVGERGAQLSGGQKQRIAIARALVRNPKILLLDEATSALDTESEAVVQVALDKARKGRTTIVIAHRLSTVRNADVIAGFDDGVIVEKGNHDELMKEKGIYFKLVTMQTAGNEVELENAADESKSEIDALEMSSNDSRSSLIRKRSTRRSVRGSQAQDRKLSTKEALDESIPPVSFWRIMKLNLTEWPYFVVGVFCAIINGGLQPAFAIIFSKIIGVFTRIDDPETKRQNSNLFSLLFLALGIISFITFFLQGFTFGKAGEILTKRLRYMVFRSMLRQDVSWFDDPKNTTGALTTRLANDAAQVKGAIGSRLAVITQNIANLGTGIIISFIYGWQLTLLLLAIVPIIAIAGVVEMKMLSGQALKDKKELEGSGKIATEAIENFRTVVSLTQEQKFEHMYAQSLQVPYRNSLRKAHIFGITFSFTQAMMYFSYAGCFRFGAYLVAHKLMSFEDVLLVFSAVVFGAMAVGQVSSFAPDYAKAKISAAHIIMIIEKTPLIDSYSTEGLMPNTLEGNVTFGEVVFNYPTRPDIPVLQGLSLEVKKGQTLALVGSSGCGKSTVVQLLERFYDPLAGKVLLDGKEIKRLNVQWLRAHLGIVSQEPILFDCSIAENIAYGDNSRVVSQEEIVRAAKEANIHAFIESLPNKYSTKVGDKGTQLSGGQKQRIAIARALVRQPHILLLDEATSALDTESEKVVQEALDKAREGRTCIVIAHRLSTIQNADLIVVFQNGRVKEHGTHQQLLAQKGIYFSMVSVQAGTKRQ
- EXPERIMENTAL DETAILS: Ratio of rhodamine123 uptake in MDR1 transfected cells vs parental L5178Y cells at 30 uM
- Format: functional, cell-based
- TEST PARAMETERS: mouse
Would you mind labelling by Ratio? At or over 30 is label 1, under is label 0.

OC[C@]12C3C4C1N(Cc1ccccc1)C1C(C(N3Cc3ccccc3)[C@]1(CO)[C@H]4c1ccccc1)[C@H]2c1ccccc1 | label 0
CC(C)(C)OC(=O)N1C2C3C4N(C(=O)OC(C)(C)C)C5C(C1[C@]5(CO)[C@H]3c1ccccc1)[C@@H](c1ccccc1)[C@@]24CO | label 1
COC(=O)N1C2C3C4N(C(=O)OC)C5C(C1[C@]5(CO)[C@H]3c1ccccc1)[C@@H](c1ccccc1)[C@@]24CO | label 0
CN1C2C3C4N(C)C5C(C1[C@]5(CO)[C@H]3c1ccccc1)[C@@H](c1ccccc1)[C@@]24CO | label 1

====

Listed here: items and their measured pIC50.
- Test system: L5178Y
- EXPERIMENTAL DETAILS: Cytotoxicity against mouse L5178Y cell line
- Assay type: functional, cell-based
pIC50: −log10 of the molar value.
RECORDED ENDPOINT: pIC50

O=C(Oc1ccccc1)N1C2C3C4N(C(=O)Oc5ccccc5)C5C(C1[C@]5(CO)[C@H]3c1ccccc1)[C@@H](c1ccccc1)[C@@]24CO | 4.90
CC(C)(C)OC(=O)N1C2C3C4N(C(=O)OC(C)(C)C)C5C(C1[C@]5(CO)[C@H]3c1ccccc1)[C@@H](c1ccccc1)[C@@]24CO | 5.60
OC[C@]12C3C4C1N(Cc1ccccc1)C1C(C(N3Cc3ccccc3)[C@]1(CO)[C@H]4c1ccccc1)[C@H]2c1ccccc1 | 4.92
CN1C2C3C4N(C)C5C(C1[C@]5(CO)[C@H]3c1ccccc1)[C@@H](c1ccccc1)[C@@]24CO | 5.15

====

IC50, ATP-dependent translocase ABCB1 (Homo sapiens): measured values
RECORDED ENDPOINT: IC50

COC(=O)N1C2C3C4N(C(=O)OC)C5C(C1[C@]5(CO)[C@H]3c1ccccc1)[C@@H](c1ccccc1)[C@@]24CO | 3.8 µM
CC(C)(C)OC(=O)N1C2C3C4N(C(=O)OC(C)(C)C)C5C(C1[C@]5(CO)[C@H]3c1ccccc1)[C@@H](c1ccccc1)[C@@]24CO | 6.1 µM
CN1C2C3C4N(C)C5C(C1[C@]5(CO)[C@H]3c1ccccc1)[C@@H](c1ccccc1)[C@@]24CO | 17.6 µM
